TESTED_TARGET: T1, human IL2Rα Fc fusion protein (human, UniProt P01589 22-213, limits assumed)
T1 construct: also called CD25; not shown: Fc part
T1 sequence (looked up): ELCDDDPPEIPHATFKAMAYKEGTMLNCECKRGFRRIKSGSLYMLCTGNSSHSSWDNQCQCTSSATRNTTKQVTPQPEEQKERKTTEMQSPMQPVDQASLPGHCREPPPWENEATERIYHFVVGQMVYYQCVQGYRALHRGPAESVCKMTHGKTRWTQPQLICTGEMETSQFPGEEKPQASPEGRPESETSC
ASSAY_COMMENT: SPR (Biacore T200), receptor captured on Protein A chip, IL2 at 100 nM and 20 nM
MEASURE: Kd (nM)

{"BINDER": "EP576 (clone 2021EP21-C10), E. coli-produced (ligand) APASSSTKKTQLQLEHLLLDLQMILNGINNYKNPKLTRMLTFKFYMPKKATELKHLQCLEEELKPLEEVLNLAQSKNFHLLPRNKISKTKVMVHELKGSETTFMCEYADETATIVEFLNRWITFSQSIISTLT", "UNIT_OF_MEASURE": "nM", "OBSERVED_VALUE": 143}
{"BINDER": "EP570 (clone 2021EP21-E03), E. coli-produced (ligand) APASSSTKKTQLQLEHLLLDLQMILNGINNYKNPKLTRMLTFKFYMPKKATELKHLQCLEEELKPLEEVLNLAQSKNFHLSSSGLLGDVWVIVLDLKGSETTFMCEYADETATIVEFLNRWITFSQSIISTLT", "UNIT_OF_MEASURE": "nM", "OBSERVED_VALUE": 21.3}

(A) EP564 (clone 2021EP22-E11), E. coli-produced (ligand) APASSSTKKTQLQLEHLLLDLQMILNGINNYKNPKLTRMLTFKFYMPKKATELKHLQCLEEELKPLEEVLNLAQSKNFHLRFKALIIEINFIVQLLKGSETTFMCEYADETATIVEFLNRWITFSQSIISTLT
(B) EP571 (clone 2021EP22-H02), E. coli-produced (ligand) APASSSTKKTQLQLEHLLLDLQMILNGINNYKNPKLTRMLTFKFYMPKKATELKHLQCLEEELKPLEEVLNLAQSKNFHLRPSELMATMRVPVQALKGSETTFMCEYADETATIVEFLNRWITFSQSIISTLT
(C) EP572 (clone 2021EP21-C03), E. coli-produced (ligand) APASSSTKKTQLQLEHLLLDLQMILNGINNYKNPKLTRMLTFKFYMPKKATELKHLQCLEEELKPLEEVLNLAQSKNFHLRARDIVRNAKVGVQELKGSETTFMCEYADETATIVEFLNRWITFSQSIISTLT
Thanks in advance: please rank these 3 entries by Kd, highest to lowest. Returns: the labels arranged in the requested order. B, C, A
(B: 117 nM, C: 75.5 nM, A: 18 nM)
